System: Trichophyton mentagrophytes KD-04
protocolNotes: Antifungal activity evaluation test, MIC, Trichophyton mentagrophytes KD-04
Assay type: cell-based
conditionInfo: KD04, 168 h, Sabouraud Dextrose Broth, 30° C., 7 days, visual, read-out: MIC T. men. KD-04
Protocol: The minimum inhibitory concentration (MIC) for Trichophyton mentagrophytes, Trichophyton rubrum, and Malassezia furfur was measured according to the following procedure. • Test compound solution: A test compound was dissolved in dimethyl sulfoxide (DMSO) at a concentration of 5 mg/mL as a stock solution. […]
measurementLabel: MIC (µg/mL)

Solved entries:
{"columns": ["molecule", "MIC, µg/mL"],
 "data": [
  ["CCC(C)n1ncn(-c2ccc(N3CCN(c4ccc(OCC5COC(Cn6cncn6)(c6ccc(Cl)cc6Cl)O5)cc4)CC3)cc2)c1=O (stereo not shown) [ITCZ, itraconazole, reference compound]", 0.1],
  ["CCCCCOc1ccccc1C(=NN1CCCC1)n1ccnc1 [Compound No. 157]", 0.05]
]}

[a] c1ccc(Oc2ccccc2C(=NN2CCCCCC2)n2ccnc2)cc1 [Compound No. 212]
[b] CCN(C)N=C(c1ccccc1OCCOc1ccccc1)n1ccnc1 [Compound No. 114]
Qu. Just curious, which one has the larger MIC reading, a or b ? Answer format: the label of the selected item.
Ans. a
(a: 0.39 µg/mL, b: 0.2 µg/mL)

----------
Test system: Trichophyton rubrum KD-101
measurementLabel: MIC (µg/mL)

{"columns": ["smilesStructure", "val"],
 "data": [
  ["C/C=C\\Oc1ccccc1C(=NN(C)C)n1ccnc1", 0.2],
  ["C=CCOc1ccccc1C(=NN1CCCCCC1)n1ccnc1", 0.1],
  ["CN(C)N=C(c1cccn1Cc1ccccc1)n1ccnc1", 0.2],
  ["Fc1ccc(COc2ccccc2C(=NN2CCCC2)n2ccnc2)cc1", 0.2],
  ["COc1ccc(COc2ccccc2C(=NN(C)C)n2ccnc2)cc1", 0.05]
]}

[P] c1ccc(OCCOc2ccccc2C(=NN2CCCC2)n2ccnc2)cc1
[Q] CCCCCOc1cccnc1C(=NN(C)C)n1ccnc1
Qu. Smaller MIC value? Options are P and Q Answer format: the label of the selected item.
Ans. P
(P: 0.1 µg/mL, Q: 1.56 µg/mL)

----------
The reader will find MIC measurements below, all made with Trichophyton rubrum KD-101.
measurementLabel: MIC (µg/mL)

Solved entries:
{"columns": ["compound", "unitTag", "MIC"],
 "data": [
  ["CCCCCCn1cccc1C(=NN(C)C)n1ccnc1 [Compound No. 104]", "µg/mL", 0.025],
  ["CCCCCOc1ccccc1C(=NN1CCCC1)n1ccnc1 [Compound No. 157]", "µg/mL", 0.05],
  ["CN(C)N=C(c1ccccc1SCCOc1ccccc1)n1ccnc1 [Compound No. 85]", "µg/mL", 0.1],
  ["CN(C)N=C(c1ccccc1CCCOc1ccccc1)n1ccnc1 [Compound No. 9]", "µg/mL", 0.05]
]}

[P] CCC(C)(C)c1ccc(CC(C)CN2C[C@@H](C)O[C@@H](C)C2)cc1 (some centres unmarked) [AMF, amorolfine, reference compound]
[Q] CCCCCOc1ccc(F)cc1C(=NN(C)C)n1ccnc1 [Compound No. 25]
Qu. Smaller MIC value? Options are P and Q Answer format: the label of the selected item.
Ans. P

----------
Tested on: Trichophyton mentagrophytes KD-04
protocolNotes: Antifungal activity evaluation test, MIC, Trichophyton mentagrophytes KD-04
Format: cell-based
conditionInfo: KD04, 168 h, Sabouraud Dextrose Broth, 30° C., 7 days, visual, read-out: MIC T. men. KD-04
measurementLabel: MIC (µg/mL)

Solved entries:
{"columns": ["smilesStructure", "measurementLabel", "val"],
 "data": [
  ["CC(C)Oc1ccccc1C(=NN(C)C)n1ccnc1", "MIC", 0.2],
  ["COc1ccc(COc2ccccc2C(=NN(C)C)n2ccnc2)cc1", "MIC", 0.2],
  ["CCCSc1ccccc1C(=NN(C)C)n1ccnc1", "MIC", 0.2]
]}

[1] CCc1ccccc1C(=NN1CCCCCC1)n1ccnc1
[2] CCCCCOc1ccc2ccccc2c1C(=NN(C)C)n1ccnc1
[3] CN(C)N=C(c1ccccc1OCCOc1ccccc1)n1ccnc1
[4] CCc1ccccc1C(=NN(C)C)n1ccnc1
Qu. // sort entries: MIC, high to low Use the labels to give the requested order.
Ans. 4, 2, 3, 1

[a] CN(C)N=C(c1sccc1OCCOc1ccccc1)n1ccnc1
[b] C=CCOc1ccccc1C(=NN(C)C)n1ccnc1
Qu. Smaller MIC value? Options are a and b Answer format: the label of the selected item.
Ans. a

----------
The reader will find MIC measurements below, all made with Trichophyton rubrum KD-101.
measurementLabel: MIC (µg/mL)

Solved entries:
{"columns": ["compound", "unitTag", "val"],
 "data": [
  ["CCCCCOc1ccc(OC)cc1C(=NN1CCCCCC1)n1ccnc1 [Compound No. 211]", "µg/mL", 0.2],
  ["CCSc1ccccc1C(=NN(C)C)n1ccnc1 [Compound No. 80]", "µg/mL", 0.39],
  ["CN(C)N=C(c1ccccc1OCCOc1ccccc1)n1ccnc1 [Compound No. 66]", "µg/mL", 0.1],
  ["CC(C)Oc1ccccc1C(=NN1CCCCCC1)n1ccnc1 [Compound No. 198]", "µg/mL", 0.2],
  ["CN(C)N=C(c1sccc1OCCOc1ccccc1)n1ccnc1 [Compound No. 101]", "µg/mL", 0.05]
]}

[A] COc1ccc(OCCOc2ccccc2C(=NN(C)C)n2ccnc2)cc1 [Compound No. 69]
[B] c1ccc(Oc2ccccc2C(=NN2CCCCCC2)n2ccnc2)cc1 [Compound No. 212]
Qu. Just curious, which one has the larger MIC reading, A or B ? Answer format: the label of the selected item.
Ans. B
(B: 0.78 µg/mL, A: 0.05 µg/mL)

[a] CCCSc1ccccc1C(=NN(C)C)n1ccnc1 [Compound No. 81]
[b] CCOc1ccccc1C(=NN(C)C)n1ccnc1 [Compound No. 16]
Qu. Just curious, which one has the larger MIC reading, a or b ? Answer format: the label of the selected item.
Ans. a

[I] C=CCOc1ccccc1C(=NN(C)C)n1ccnc1 [Compound No. 20]
[II] CSc1ccccc1C(=NN(C)C)n1ccnc1 [Compound No. 79]
[III] COc1cccc(COc2ccccc2C(=NN(C)C)n2ccnc2)c1 [Compound No. 53]
Qu. Which order do these items take when sorted by rising MIC? List them. Use the labels to give the requested order.
Ans. I, III, II
(I: 0.1 µg/mL, III: 0.2 µg/mL, II: 0.39 µg/mL)

----------
System: Trichophyton mentagrophytes KD-04
protocolNotes: Antifungal activity evaluation test, MIC, Trichophyton mentagrophytes KD-04
Assay type: cell-based
conditionInfo: KD04, 168 h, Sabouraud Dextrose Broth, 30° C., 7 days, visual, read-out: MIC T. men. KD-04
measurementLabel: MIC (µg/mL)

[a] C/C=C\Oc1ccccc1C(=NN(C)C)n1ccnc1
[b] C=CCOc1ccccc1C(=NN1CCCCCC1)n1ccnc1
[c] CN(C)N=C(c1ccccc1CCCOc1ccccc1)n1ccnc1
Qu. Given 3 compounds, produce a descending ranking by MIC. Use the labels to give the requested order.
Ans. a, b, c

[a] c1ccc(OCCOc2ccccc2C(=NN2CCCC2)n2ccnc2)cc1
[b] CCN(CC)N=C(c1ccccc1OCc1ccc(Cl)cc1)n1ccnc1
[c] CCCCSc1ccccc1C(=NN(C)C)n1ccnc1
Qu. // sort entries: MIC, high to low Use the labels to give the requested order.
Ans. a, b, c
(a: 0.2 µg/mL, b: 0.1 µg/mL, c: 0.05 µg/mL)

[1] CN(C)N=C(c1ccccc1OCc1ccccc1)n1ccnc1
[2] CCCCCN(C)c1ccccc1C(=NN(C)C)n1ccnc1
Qu. Smaller MIC value? Options are 1 and 2 Answer format: the label of the selected item.
Ans. 2

----------
The reader will find MIC measurements below, all made with Trichophyton rubrum KD-101.
measurementLabel: MIC (µg/mL)

Solved entries:
{"columns": ["compound", "studyTarget", "MIC [µg/mL]"],
 "data": [
  ["CCC(C)n1ncn(-c2ccc(N3CCN(c4ccc(OCC5COC(Cn6cncn6)(c6ccc(Cl)cc6Cl)O5)cc4)CC3)cc2)c1=O (centres unmarked) [ITCZ, itraconazole, reference compound]", "Trichophyton rubrum KD-101", 0.1],
  ["CN(C)N=C(c1ccccc1OC(F)(F)C(F)F)n1ccnc1", "Trichophyton rubrum KD-101", 0.78],
  ["CN(C)N=C(c1ccccc1OCc1ccccc1)n1ccnc1", "Trichophyton rubrum KD-101", 0.2],
  ["CCc1ccccc1C(=NN(C)C)n1ccnc1", "Trichophyton rubrum KD-101", 0.78],
  ["CN(C)N=C(c1ccccc1OCCCc1ccccc1)n1ccnc1", "Trichophyton rubrum KD-101", 0.05]
]}

[I] CCCCCOc1ccccc1C(=NN1CCCCC1)n1ccnc1
[II] CN(C)N=C(c1ccccc1OC(F)(F)F)n1ccnc1
[III] CCc1ccccc1C(=NN1CCCCCC1)n1ccnc1
Qu. // sort entries: MIC, high to low Use the labels to give the requested order.
Ans. II, I, III
(II: 0.39 µg/mL, I: 0.1 µg/mL, III: 0.05 µg/mL)

[1] CCN(C)N=C(c1ccccc1OCCOc1ccccc1)n1ccnc1
[2] CCCCCN(C)c1ccccc1C(=NN(C)C)n1ccnc1
Qu. Smaller MIC value? Options are 1 and 2 Answer format: the label of the selected item.
Ans. 2
(2: 0.05 µg/mL, 1: 0.1 µg/mL)

[1] CCCCSc1ccccc1C(=NN(C)C)n1ccnc1
[2] CN(C)N=C(c1ccccc1OCCc1ccc(N(C)C)cc1)n1ccnc1
Qu. Just curious, which one has the larger MIC reading, 1 or 2 ? Answer format: the label of the selected item.
Ans. 2
(2: 0.2 µg/mL, 1: 0.1 µg/mL)

[a] CN(C)N=C(c1ccccc1CCc1ccccc1)n1ccnc1
[b] CN(C)N=C(c1ccccc1OCCCCOc1ccccc1)n1ccnc1
[c] CC(C)Oc1ccccc1C(=NN(C)C)n1ccnc1
[d] CCCOc1ccccc1C(=NN(C)C)n1ccnc1
Qu. // sort entries: MIC, high to low Use the labels to give the requested order.
Ans. c, d, a, b

This collection of values is drawn from patent US8022072B2.
